B1: HDV Ribozyme (parent)
chain: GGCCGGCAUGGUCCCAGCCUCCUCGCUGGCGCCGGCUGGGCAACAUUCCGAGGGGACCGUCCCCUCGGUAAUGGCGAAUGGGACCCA

- Variants of: B1
- protocol.summary: self-cleavage, relative activity (ratio to wild type); higher = more cleavage; co-transcriptional
Assignment: determine reported self-cleavage for the given variants.
Respond numerically, and do not add a unit to the figure.

Q: Please indicate self-cleavage recorded for G11A G76U
Ans: 0.623

Q: Report self-cleavage for A8C G73C
Ans: 0.115

Q: Give reported self-cleavage value for C33G G38C
Ans: 0

Q: Please list self-cleavage recorded for the variant A8U C18A
Ans: 0.0554
